Test system: Rattus norvegicus
Assay: Starting systolic blood pressure at dose of 50 mg/kg in rat
Assay type: functional, Artery
This section presents compounds with their documented SP values.
Hi! Could you send only the number? It should be in mmHg, unit omitted.

Below are worked cases with known answers.
INSERT INTO results (smiles_record, readout_name, unit_symbol, reported_value) VALUES
  ('O=C(NC(=O)c1ccccc1)NC1CCN(CCCc2c[nH]c3ccccc23)CC1', 'SP', 'mmHg', 191),
  ('O=C(Nc1ccccc1)NC1CCN(CCCC(=O)c2ccccc2)CC1', 'SP', 'mmHg', 205),
  ('O=C(Nc1ccccc1C(F)(F)F)NC1CCN(CCCC(=O)c2ccccc2)CC1', 'SP', 'mmHg', 208),
  ('O=C(NC(=O)c1ccccc1)NC1CCN(CCc2c[nH]c3ccccc23)CC1', 'SP', 'mmHg', 179);

Consider the additional compound presented here.
(Q) Which measured SP value corresponds to `O=C(Nc1ccc(Cl)c(Cl)c1)NC1CCN(CCCC(=O)c2ccccc2)CC1` ?
(A) 169
